# methodSummary: Drug distribution study (brain and plasma, LC-MS/MS)
# Format: in vivo, mouse
# measurementContext: Swiss Webster, mouse, brain, sc; 0.1 mg/kg s.c., 60 min; read-out: B/P (brain-to-plasma concentration ratio)
propertyMeasured: Kp at 1 h
Respond with the number and no other words.

Req: Find the recorded Kp at 1 h belonging to `CN(C(=O)/C=C/c1ccco1)[C@@H]1CC[C@@]2(O)[C@H]3Cc4ccc(O)c5c4[C@@]2(CCN3CC2CC2)[C@H]1O5.Cl` and report it.
Resp: 1.45

----------
# assayedTarget: DOR (Homo sapiens, UniProt P41143)
# Construct: expressed in transfected cells; membrane homogenate
# Sequence (P41143 whole entry): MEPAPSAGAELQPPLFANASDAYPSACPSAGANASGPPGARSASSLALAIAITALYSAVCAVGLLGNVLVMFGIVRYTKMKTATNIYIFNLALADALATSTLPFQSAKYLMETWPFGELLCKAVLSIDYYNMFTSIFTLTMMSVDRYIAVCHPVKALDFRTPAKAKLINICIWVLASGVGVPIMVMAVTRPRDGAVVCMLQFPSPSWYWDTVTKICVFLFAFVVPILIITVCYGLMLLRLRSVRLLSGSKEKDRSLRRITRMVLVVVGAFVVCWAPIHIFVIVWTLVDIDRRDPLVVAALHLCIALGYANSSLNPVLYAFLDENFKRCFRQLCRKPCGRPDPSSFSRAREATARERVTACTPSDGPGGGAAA
# methodSummary: Competitive radioligand binding assay, DOR
propertyMeasured: pKi
# pKi: negative log10 of molar concentration; output just the value

Req: Query the reported pKi for DOR (Homo sapiens, UniProt P41143); item: `O=C(CCc1ccoc1)N[C@H]1CC[C@@]2(O)[C@H]3Cc4cccc5c4[C@@]2(CCN3CC2CC2)[C@H]1O5`
Resp: 6.81

Req: Item: `CN(C(=O)/C=C/c1ccco1)[C@@H]1CC[C@@]2(O)[C@H]3Cc4ccc(O)c5c4[C@@]2(CCN3CC2CC2)[C@H]1O5.Cl` Test system: DOR (Homo sapiens, UniProt P41143) Read-out: pKi Value: ?
Resp: 8.10

Req: # get_value(readout= pKi, system= DOR (Homo sapiens, UniProt P41143)) for `CN(C(=O)CCc1ccco1)[C@H]1CC[C@@]2(O)[C@H]3Cc4cccc5c4[C@@]2(CCN3CC2CC2)[C@H]1O5`
Resp: 7.33

Req: What value of pKi on DOR (Homo sapiens, UniProt P41143) does `CN(C(=O)/C=C/c1ccco1)[C@H]1CC[C@@]2(O)[C@H]3Cc4ccc(O)c5c4[C@@]2(CCN3CC2CC2)[C@H]1O5.Cl` have?
Resp: 9.03

Req: Request: pKi, test system DOR (Homo sapiens, UniProt P41143), entry `O=C(/C=C/c1ccco1)N[C@@H]1CC[C@@]2(O)[C@H]3Cc4ccc(O)c5c4[C@@]2(CCN3CC2CC2)[C@H]1O5`
Resp: 7.89

Req: Form field: pKi recorded for `O=C(/C=C/c1ccco1)N[C@H]1CC[C@@]2(O)[C@H]3Cc4ccc(O)c5c4[C@@]2(CCN3CC2CC2)[C@H]1O5` with DOR (Homo sapiens, UniProt P41143) (enter value)
Resp: 8.06

Req: Fill in the recorded pKi for this molecule, with DOR (Homo sapiens, UniProt P41143) as test system: `CN(C(=O)/C=C/c1ccco1)[C@@H]1CC[C@@]2(O)[C@H]3Cc4cccc5c4[C@@]2(CCN3CC2CC2)[C@H]1O5`
Resp: 5.65

Req: I'm curious: which pKi was measured for `O=C(CCc1ccco1)N[C@H]1CC[C@@]2(O)[C@H]3Cc4cccc5c4[C@@]2(CCN3CC2CC2)[C@H]1O5` tested on DOR (Homo sapiens, UniProt P41143)?
Resp: 7.04

Req: Item: `CN(C(=O)CCc1ccco1)[C@@H]1CC[C@@]2(O)[C@H]3Cc4ccc(O)c5c4[C@@]2(CCN3CC2CC2)[C@H]1O5` Test system: DOR (Homo sapiens, UniProt P41143) Read-out: pKi Value: ?
Resp: 8.14

Req: Short answer please: pKi, DOR (Homo sapiens, UniProt P41143), entry `CN(C(=O)CCc1ccoc1)[C@H]1CC[C@@]2(O)[C@H]3Cc4ccc(O)c5c4[C@@]2(CCN3CC2CC2)[C@H]1O5`
Resp: 9.23

Req: // lookup pKi | system=DOR (Homo sapiens, UniProt P41143) | key= `CN(C(=O)CCc1ccoc1)[C@@H]1CC[C@@]2(O)[C@H]3Cc4ccc(O)c5c4[C@@]2(CCN3CC2CC2)[C@H]1O5`
Resp: 8.07

----------
# assayedTarget: DOR (Homo sapiens, UniProt P41143)
# Construct: expressed in transfected cells; membrane homogenate
# methodSummary: [35S]-GTPγS functional assay, DOR
# Format: biochemical
# measurementContext: percent of SNC80 full agonist control
propertyMeasured: Emax

Req: Can you look up Emax on DOR (Homo sapiens, UniProt P41143) for `CN(C(=O)/C=C/c1ccco1)[C@@H]1CC[C@@]2(O)[C@H]3Cc4cccc5c4[C@@]2(CCN3CC2CC2)[C@H]1O5` ?
Resp: > 80%

Req: Lab request: please report Emax under test system DOR (Homo sapiens, UniProt P41143) for `O=C(CCc1ccco1)N[C@H]1CC[C@@]2(O)[C@H]3Cc4cccc5c4[C@@]2(CCN3CC2CC2)[C@H]1O5`
Resp: > 80%

Req: Requested read-out Emax, target or system DOR (Homo sapiens, UniProt P41143), entry `O=C(/C=C/c1ccco1)N[C@@H]1CC[C@@]2(O)[C@H]3Cc4cccc5c4[C@@]2(CCN3CC2CC2)[C@H]1O5`
Resp: > 80%

----------
# assayedTarget: KOR (Mus musculus, UniProt P33534)
# Construct: membrane homogenate
# Sequence (P33534 whole entry): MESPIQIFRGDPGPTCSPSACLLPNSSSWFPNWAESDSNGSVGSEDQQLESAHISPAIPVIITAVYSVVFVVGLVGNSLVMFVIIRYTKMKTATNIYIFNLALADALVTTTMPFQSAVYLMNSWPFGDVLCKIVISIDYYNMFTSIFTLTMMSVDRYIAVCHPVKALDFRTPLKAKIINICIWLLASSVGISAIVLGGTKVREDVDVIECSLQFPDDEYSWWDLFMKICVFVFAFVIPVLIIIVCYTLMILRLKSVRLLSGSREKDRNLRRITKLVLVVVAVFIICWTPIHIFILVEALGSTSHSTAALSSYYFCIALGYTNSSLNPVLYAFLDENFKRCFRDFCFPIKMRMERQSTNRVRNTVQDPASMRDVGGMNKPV
# methodSummary: [35S]-GTPγS functional assay, KOR
# measurementContext: mKOR-CHO membranes
propertyMeasured: pEC50
# pEC50 is unitless: minus log10 of the molar concentration; print number only

Req: Name the reported pEC50 value associated with the compound `CN(C(=O)/C=C/c1ccco1)[C@@H]1CC[C@@]2(O)[C@H]3Cc4cccc5c4[C@@]2(CCN3CC2CC2)[C@H]1O5`
Resp: 7.27

Req: Which pEC50 is reported for this compound? `O=C(/C=C/c1ccco1)N[C@H]1CC[C@@]2(O)[C@H]3Cc4ccc(O)c5c4[C@@]2(CCN3CC2CC2)[C@H]1O5`
Resp: 7.86

Req: State the recorded pEC50 for this entry: `CN(C(=O)/C=C/c1ccco1)[C@H]1CC[C@@]2(O)[C@H]3Cc4ccc(O)c5c4[C@@]2(CCN3CC2CC2)[C@H]1O5.Cl`
Resp: 10.40

Req: Requested field: pEC50. Item: `CN(C(=O)/C=C/c1ccco1)[C@H]1CC[C@@]2(O)[C@H]3Cc4cccc5c4[C@@]2(CCN3CC2CC2)[C@H]1O5`
Resp: 8.22

Req: Requested field: pEC50. Item: `CN(C(=O)CCc1ccoc1)[C@@H]1CC[C@@]2(O)[C@H]3Cc4cccc5c4[C@@]2(CCN3CC2CC2)[C@H]1O5`
Resp: 6.61

Req: # query: pEC50 of entry `O=C(CCc1ccco1)N[C@H]1CC[C@@]2(O)[C@H]3Cc4cccc5c4[C@@]2(CCN3CC2CC2)[C@H]1O5`
Resp: 6.35

Req: Give the measured pEC50 of `CN(C(=O)CCc1ccoc1)[C@@H]1CC[C@@]2(O)[C@H]3Cc4ccc(O)c5c4[C@@]2(CCN3CC2CC2)[C@H]1O5` .
Resp: 9.00

Req: What value of measured pEC50 is listed for `CN(C(=O)CCc1ccco1)[C@@H]1CC[C@@]2(O)[C@H]3Cc4ccc(O)c5c4[C@@]2(CCN3CC2CC2)[C@H]1O5` ?
Resp: 8.83

Req: Please report the recorded pEC50 for `O=C(/C=C/c1ccco1)N[C@@H]1CC[C@@]2(O)[C@H]3Cc4ccc(O)c5c4[C@@]2(CCN3CC2CC2)[C@H]1O5` .
Resp: 9.27

Req: What value of pEC50 has been recorded for this entry: `CN(C(=O)/C=C/c1ccco1)[C@@H]1CC[C@@]2(O)[C@H]3Cc4ccc(O)c5c4[C@@]2(CCN3CC2CC2)[C@H]1O5.Cl`
Resp: 9.85

Req: Using the record for `O=C(CCc1ccco1)N[C@@H]1CC[C@@]2(O)[C@H]3Cc4cccc5c4[C@@]2(CCN3CC2CC2)[C@H]1O5` , report its pEC50.
Resp: 6.43

----------
# assayedTarget: MOR (Mus musculus)
# Sequence (P42866 whole entry, looked up): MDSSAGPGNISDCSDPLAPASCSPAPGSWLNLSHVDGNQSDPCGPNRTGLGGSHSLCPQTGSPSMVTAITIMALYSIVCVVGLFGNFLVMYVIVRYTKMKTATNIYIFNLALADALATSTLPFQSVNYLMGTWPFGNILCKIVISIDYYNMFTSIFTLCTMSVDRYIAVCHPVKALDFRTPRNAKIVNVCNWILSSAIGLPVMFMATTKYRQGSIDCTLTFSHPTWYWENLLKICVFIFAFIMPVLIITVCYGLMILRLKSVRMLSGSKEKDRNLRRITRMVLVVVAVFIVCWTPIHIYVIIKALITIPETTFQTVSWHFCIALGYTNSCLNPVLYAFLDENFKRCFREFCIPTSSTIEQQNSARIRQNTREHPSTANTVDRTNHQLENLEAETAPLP
# methodSummary: Competitive radioligand binding assay, MOR
# Set-up: expressed in transfected cells; membrane homogenate
Give pKi for every item shown.
// pKi: -log10(molar conc.)

Req: GET /values?readout=pKi&item= `O=C(CCc1ccco1)N[C@@H]1CC[C@@]2(O)[C@H]3Cc4cccc5c4[C@@]2(CCN3CC2CC2)[C@H]1O5`
Resp: 7.56

Req: Fill in the blank: the reported pKi of `CN(C(=O)/C=C/c1ccco1)[C@H]1CC[C@@]2(O)[C@H]3Cc4cccc5c4[C@@]2(CCN3CC2CC2)[C@H]1O5` is ____.
Resp: 7.77

Req: Need pKi, item `O=C(/C=C/c1ccco1)N[C@H]1CC[C@@]2(O)[C@H]3Cc4ccc(O)c5c4[C@@]2(CCN3CC2CC2)[C@H]1O5`
Resp: 9.28
